Molecular target: human GPR52 (Homo sapiens, UniProt Q9Y2T5)
Construct: expressed in transfected cells; host or cells: CHO (dhfr-) cells
Sequence (Q9Y2T5 whole entry): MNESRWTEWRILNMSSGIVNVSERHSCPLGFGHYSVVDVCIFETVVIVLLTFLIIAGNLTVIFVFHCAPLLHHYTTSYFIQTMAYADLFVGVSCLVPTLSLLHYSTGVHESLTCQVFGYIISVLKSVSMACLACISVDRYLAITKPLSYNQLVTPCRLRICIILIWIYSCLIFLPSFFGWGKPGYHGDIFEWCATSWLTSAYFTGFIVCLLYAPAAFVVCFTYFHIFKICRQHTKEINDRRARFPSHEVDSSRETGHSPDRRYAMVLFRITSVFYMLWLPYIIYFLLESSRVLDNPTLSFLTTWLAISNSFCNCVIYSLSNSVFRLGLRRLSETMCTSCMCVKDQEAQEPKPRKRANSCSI
Assay: Increased intracellular cAMP levels in human GPR52 expression CHO cells
Assay type: cell-based
Settings: 1 μM test compound, 30 min at 37° C., human GPR52 expression CHO (dhfr-) cells; 100% = cAMP level with 1 μM Reference Example 136, 0% = DMSO
measured-property: GPR52 agonist activity (%)

- molecule: "O=C1NCc2c1cccc2-c1cccc2cc(Cc3cccc(C(F)(F)F)c3)sc12 [Working Example 326]"
  unit-string: "%"
  assay-result: 92
- molecule: "O=C(NCCO)c1ccnc(-c2cccc3cc(Cc4cccc(C(F)(F)F)c4)sc23)c1 [Working Example 198]"
  unit-string: "%"
  assay-result: 88
- molecule: "Cn1c(Cc2cccc(C(F)(F)F)c2)nc2c(-c3cccc(C(=O)NCCC#N)c3)cccc21 [Working Example 88]"
  unit-string: "%"
  assay-result: 59
- molecule: "Cc1c(Cc2cccc(C(F)(F)F)c2)sc2c(-c3cccc(C(=O)NCCO)c3)cccc12 [Working Example 191]"
  unit-string: "%"
  assay-result: 94
